Source: PubChem BioAssay

- method_notes: stimulators of nuclear beta-catenin in C2C12, primary screen, imaging, WNT3A-conditioned medium, mouse C2C12, NPC library (AID 1117326)
- experimental_conditions: at 10 µM, stronger effect = higher value
endpoint_name: nuclear beta-catenin stimulation (%)
Write the answer as a number in %, unit excluded.

> print(dat)
                                   molecule                     endpoint.name  numeric.value
1                       CCCCCCCCCCCCCCCCCCO  nuclear beta-catenin stimulation            0.4
2                            O=Cc1ccccc1C=O  nuclear beta-catenin stimulation           -0.8
3  COC(=O)[C@H]1[C@H]2C[C@@H]3c4[nH]c5cc(OC)ccc5c4CCN3C[C@H]2C[C@@H](OC(=O)/C=C/c2ccc(O)c(OC)c2)[C@@H]1OC  nuclear beta-catenin stimulation           74.6
4  CCCCN(CCCC)C(C(N)=O)c1ccc(OC)cc1 (stereo unspecified)  nuclear beta-catenin stimulation              0
5  CCCCN(CCN(CCCC)C(=O)N1CCOCC1)C(=O)N1CCOCC1  nuclear beta-catenin stimulation            1.4

From here, focus on the item given below.
-- ask Request the reported nuclear beta-catenin stimulation associated with CC[C@H]1CN2CCc3cc(OC)c(OC)cc3[C@@H]2C[C@@H]1C[C@H]1NCCc2cc(OC)c(OC)cc21
-- reply 12.4

----------
- method_notes: CellTiter-Glo luminescent readout of SW480 viability loss, NPC library primary (AID 1117343)
- experimental_conditions: CellTiter-Glo luminescence; at 20 µM (top of the series)
Calls of active or inactive are those of the source.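 Rule for the calls: active = compounds that lower viability of the colon cancer cells in the luminescence readout, with no numeric limit stated; inactive = the rest.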
The categories you may choose from are true (1) for active, false (0) for inactive

> print(dat)
                molecule   category
1  O=C(c1ccccc1)c1ccccc1  false (0)

-- ask What did this assay record as the result for CC(=O)O[C@H]1C[C@@H]2CC[C@H]3[C@H]4C[C@H]([N+]5(C)CCCCC5)[C@@H](OC(C)=O)[C@@]4(C)CC[C@@H]3[C@@]2(C)C[C@H]1[N+]1(C)CCCCC1 ?
-- reply true (1)

-- ask Per the assay record, what outcome was assigned to CN1C(CSCC(F)(F)F)Nc2cc(Cl)c(S(N)(=O)=O)cc2S1(=O)=O (stereo not given) ?
-- reply false (0)

----------
- method_notes: rescue of polyQ-huntingtin neuronal dysfunction in worms, whole organism, C. elegans mechanosensory neurons, N-terminal huntingtin (AID 1599)
- experimental_conditions: touch response, stronger effect = higher value
Measured potencies and affinities stand elsewhere.
Please use the following rescue above control ranges when assigning a class: lower level (below -3), middle level (-3 to below 4), upper level (4 or more)

> print(dat)
                                    compound      category
 1              NC(N)=NC(=O)c1nc(Cl)c(N)nc1N   lower level
 2                c1ccc2[nH]c(-c3cscn3)nc2c1   lower level
 3  CCCNC(C)C(=O)Nc1ccccc1C (configuration not stated)   lower level
 4                   CC[N+](C)(C)c1cccc(O)c1   lower level
 5  CCCCc1oc2ccccc2c1C(=O)c1cc(I)c(OCCN(CC)CC)c(I)c1  middle level
 6  O=C(C1CCCCC1)N1CC(=O)N2CCc3ccccc3C2C1 (configuration not stated)   lower level
 7  Cc1cccc(CN2CCN(C(c3ccccc3)c3ccc(Cl)cc3)CC2)c1 (configuration not stated)  middle level
 8  CC(C)(C)NCC(O)COc1cccc2c1C[C@H](O)[C@H](O)C2 (some centres not stated)  middle level
 9                     S=c1nc[nH]c2nc[nH]c12   lower level
10                CCN(CC)CCNC(=O)c1ccc(N)cc1   upper level

-- ask Hi, small favor: classify CN1C(C(=O)Nc2ccccn2)=C(O)c2ccccc2S1(=O)=O by its rescue above control when you get a moment.
-- reply upper level

-- ask Assign a bin to O=c1n(CCCN2CCN(c3cccc(Cl)c3)CC2)nc2ccccn12
-- reply upper level

-- ask Which bin, given its rescue above control, does Cn1c(=O)c2[nH]cnc2n(C)c1=O occupy?
-- reply middle level

-- ask Kindly state the category for this compound: c1ccc2c(CC3=NCCN3)cccc2c1
-- reply middle level

-- ask Please let me know in which category the item OC(Cn1cncn1)(Cn1cncn1)c1ccc(F)cc1F belongs.
-- reply lower level

----------
- method_notes: survival rescue of mitochondrial mutant cells in low glucose, primary screen, MELAS cybrids, Rieske KO mouse fibroblasts, CellTiter-Glo (AID 1508586);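 note: z relative to plate mean and SD of compound and empty wells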
- experimental_conditions: MELAS cybrid survival, CellTiter-Glo 48 h, stronger effect = higher value
# z-score listing for each entry below
Returns: the value as a bare number; no unit string appended.

Below are worked cases with known answers.
> print(dat)
                                   molecule  endpoint.name  numeric.value
1  COc1cccc(COc2cc(-n3cnc4ccccc43)sc2C(N)=O)c1        z-score          -0.15
2    Cc1ccc(O)cc1Nc1ccnc2cc(-c3ccccn3)ccc12        z-score         -0.612
3  COc1ccc(-c2nn3ncccc3c2-c2ccnc(Nc3ccc4c(c3)OCCO4)n2)cc1        z-score          0.896
4  COc1cc2ncnc(Nc3ccc4c(cnn4Cc4ccccc4)c3)c2cc1OC        z-score          0.162
5  CCn1c(-c2nonc2N)nc2cnc(Oc3cccc(NC(=O)c4ccc(OCCN5CCOCC5)cc4)c3)cc21        z-score         -0.727

-- ask Can you share its z-score? I mean this molecule: CN[C@H]1CC[C@@H](c2ccc(Cl)c(Cl)c2)c2ccccc21
-- reply -0.257

-- ask Consider the molecule CN(c1ccc(NC(=O)Nc2c(Cl)cccc2Cl)cc1)c1ccnc(Nc2cccc(CS(C)(=O)=O)c2)n1 and give its measured z-score.
-- reply -0.649

-- ask // returns reported z-score for input O/N=C1/CCc2cc(-c3nc(C4CCNCC4)[nH]c3-c3ccncc3)ccc21
-- reply -1.26

-- ask Request the reported z-score associated with Cc1cccc(CN2CCN(C(c3ccccc3)c3ccc(Cl)cc3)CC2)c1 (stereo unspecified)
-- reply -0.845

-- ask Quick one: z-score for COC1CCC2NC3C4NC5CCC(OC)CC5C4C4C(=O)NC(=O)C4C3C2C1 (stereo unspecified) ?
-- reply -0.302

-- ask Report z-score for CC(C)c1ccc2c(N=Nc3ccc(S(N)(=O)=O)cc3)c(O)[nH]c2c1 please.
-- reply -0.58

-- ask z-score for NS(=O)(=O)c1ccc(N=Nc2c(O)[nH]c3ccc(C(=O)NCc4ccncc4)cc23)cc1 ?
-- reply -0.207

----------
- method_notes: kinase inhibitors against Plasmodium liver-stage infection, cell-based, known kinase inhibitor set, luminescence, hepatoma host viability (AID 624392);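 note: infected cells incubated roughly two days before readout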
- experimental_conditions: Plasmodium liver stage in hepatoma cells, luciferase luminescence, concentration not given here; stronger effect = lower value
Recorded parasite % of control for the following compounds
Please reply with the bare figure in % and do not write the unit itself.

Take a look at these entries with their results.
> print(dat)
                                   compound          endpoint.name  numeric.value
1  CC(C)c1ccc2c(N=Nc3ccc(S(N)(=O)=O)cc3)c(O)[nH]c2c1  parasite % of control            160
2  CCCn1cc(C2=C(c3cn(C)c4ccccc34)C(=O)NC2=O)c2ccccc21  parasite % of control           78.5
3  NS(=O)(=O)c1cccc(NC2CC(c3ccc(F)cc3)NN2)c1 (stereo unspecified)  parasite % of control            117

-- ask Return reported parasite % of control; argument: COc1ccc(C2=C(c3cn(C)c4ccccc34)C(=O)NC2=O)cc1OC
-- reply 12.7

-- ask I am curious: what parasite % of control value has been reported for Nc1c(C(=O)c2cccc(C#CCN3CCCCC3)c2)cnn1-c1ccc(F)cc1 ?
-- reply 50.5

-- ask Returns the measured parasite % of control for the input compound. Input: COc1ccc(N2Cc3cnc(Nc4ccccc4)nc3N(C3CCC(O)C3)C2=O)cc1 (stereo unspecified)
-- reply 234

-- ask // query parasite % of control value for entry CCn1c(=O)c(Oc2ccc(F)cc2F)cc2cnc(NC3CCOCC3)nc21
-- reply 55.7

-- ask Need parasite % of control of COc1cccc(C2=C(c3c(C)n(C)c4ccccc34)C(=O)NC2=O)c1 , thanks.
-- reply 66.1

-- ask Which parasite % of control reading was recorded for the compound N#Cc1c(NC(=O)c2ccc(F)cc2)sc2c1CCCC2 ?
-- reply 137

-- ask What does the data say about its parasite % of control? Entry: CN1CCN(CCc2cccc(C(=O)c3cnn(-c4ccc(F)cc4)c3N)c2)CC1
-- reply 51.1

-- ask Look up parasite % of control for this compound: c1ccc(Nc2ncc(-c3ccccc3)o2)cc1
-- reply 93.5
